Experiment: Pharmacokinetics assay in mice
Format: in vivo
Conditions: mouse, po; C57 mice (female), intragastric, 2 mg/kg, plasma; read-out: Area under curve AUC
Method: Mice were used as the test animal. The drug concentration in plasma at different time points was determined by LC/MS/MS method after administration of compound 3-P2, compound 4-P2, compound 9-P2, compound 10-P2, compound 12 and compound 15. The pharmacokinetic behavior of the compounds of the present disclosure in mice was studied, and the pharmacokinetic characteristics were evaluated. […]
Outcome measure: AUC (ng·h/mL)

See these solved cases before continuing.
Molecule: COc1cc(F)cc([C@@H](CO)NC(=O)[C@@H](C)N2CCc3sc(-c4nc(NC5CCOCC5)ncc4Cl)cc3C2=O)c1 [Example 9-P2]
Value measured: 1820
--
Molecule: COc1cc(F)cc([C@@H](CO)NC(=O)[C@@H](C)N2CCc3sc(-c4nc(N[C@@H](C)CO)ncc4Cl)cc3C2=O)c1
Value measured: 1600
--
Molecule: C[C@H](C(=O)N[C@H](CO)c1cccc(Cl)c1)N1CCc2sc(-c3nc(NC4CCOCC4)ncc3Cl)cc2C1=O [Example 4-P2]
Value measured: 364
--
Molecule: COc1cc(F)cc([C@@H](CO)NC(=O)[C@@H](C)N2CCc3sc(-c4nc(Nc5ccnn5C)ncc4C)cc3C2=O)c1 [Example 10-P2]
Value measured: 1830

(P) COc1cc(F)cc([C@@H](CO)NC(=O)[C@@H](C)N2CCc3sc(-c4ccnc(Nc5ccnn5C)n4)cc3C2=O)c1
(Q) Cc1cccc([C@@H](CO)NC(=O)[C@@H](C)N2CCc3sc(-c4nc(NC5CCOCC5)ncc4Cl)cc3C2=O)c1 [Example 3-P2]
I need your help: which of the pair P , Q has higher AUC? Your answer should be the label attached to the chosen record.
P
(P: 1830 ng·h/mL, Q: 914 ng·h/mL)

###

Test: Pharmacokinetics assay in mice
Assay type: in vivo
Details: mouse, po; C57 mice (female), intragastric, 2 mg/kg, plasma; read-out: Plasma Concentration Cmax
Protocol: Mice were used as the test animal. The drug concentration in plasma at different time points was determined by LC/MS/MS method after administration of compound 3-P2, compound 4-P2, compound 9-P2, compound 10-P2, compound 12 and compound 15. The pharmacokinetic behavior of the compounds of the present disclosure in mice was studied, and the pharmacokinetic characteristics were evaluated. […]
Outcome measure: Cmax (ng/mL)

Compound: Cc1cccc([C@@H](CO)NC(=O)[C@@H](C)N2CCc3sc(-c4nc(NC5CCOCC5)ncc4Cl)cc3C2=O)c1 [Example 3-P2]
Outcome measure: Cmax
Unit symbol: ng/mL
Value measured: 708

(I) COc1cc(F)cc([C@@H](CO)NC(=O)[C@@H](C)N2CCc3sc(-c4nc(N[C@@H](C)CO)ncc4Cl)cc3C2=O)c1
(II) C[C@H](C(=O)N[C@H](CO)c1cccc(Cl)c1)N1CCc2sc(-c3nc(NC4CCOCC4)ncc3Cl)cc2C1=O [Example 4-P2]
(III) COc1cc(F)cc([C@@H](CO)NC(=O)[C@@H](C)N2CCc3sc(-c4nc(Nc5ccnn5C)ncc4C)cc3C2=O)c1 [Example 10-P2]
Sort the 3 compounds by Cmax; largest first, smallest last. Your reply should list the labels following the order given in the request.
I, III, II

###

Assay: Pharmacokinetics assay in mice
Type: in vivo
Conditions: mouse, po; C57 mice (female), intragastric, 2 mg/kg, plasma; read-out: Clearance CLz/F
Outcome measure: CL/F (mL/min/kg)

Molecule: COc1cc(F)cc([C@@H](CO)NC(=O)[C@@H](C)N2CCc3sc(-c4nc(N[C@@H](C)CO)ncc4Cl)cc3C2=O)c1 [Example 12]
Value measured: 20.8
//
Molecule: COc1cc(F)cc([C@@H](CO)NC(=O)[C@@H](C)N2CCc3sc(-c4nc(Nc5ccnn5C)ncc4C)cc3C2=O)c1 [Example 10-P2]
Value measured: 18.2
//
Molecule: COc1cc(F)cc([C@@H](CO)NC(=O)[C@@H](C)N2CCc3sc(-c4ccnc(Nc5ccnn5C)n4)cc3C2=O)c1 [Example 15]
Value measured: 18.2

(P) Cc1cccc([C@@H](CO)NC(=O)[C@@H](C)N2CCc3sc(-c4nc(NC5CCOCC5)ncc4Cl)cc3C2=O)c1 [Example 3-P2]
(Q) C[C@H](C(=O)N[C@H](CO)c1cccc(Cl)c1)N1CCc2sc(-c3nc(NC4CCOCC4)ncc3Cl)cc2C1=O [Example 4-P2]
(R) COc1cc(F)cc([C@@H](CO)NC(=O)[C@@H](C)N2CCc3sc(-c4nc(NC5CCOCC5)ncc4Cl)cc3C2=O)c1 [Example 9-P2]
Sort the 3 molecules by CL/F; largest first, smallest last. Your reply should list the labels following the order given in the request.
Q, P, R

###

System: Colo205 cells
Assay: In vitro proliferation inhibition test on Colo205 tumor cells (CellTiter-Glo)
Type: cell-based
Conditions: Homo sapiens, COLO 205, 72 h; Colo205 cell proliferation, 3 days of culture, CTG
Outcome measure: IC50 (nM)

Compound: O=C(CN1CCc2sc(-c3nc(NC4CCOCC4)ncc3Cl)cc2C1=O)N[C@H](CO)c1cccc(Cl)c1
Outcome measure: IC50
Value measured: 8
--
Compound: COc1cc(F)cc([C@@H](CO)NC(=O)[C@@H](C)N2CCc3sc(-c4nc(N[C@@H](C)CO)ncc4Cl)cc3C2=O)c1
Outcome measure: IC50
Value measured: 5

(a) COc1cc(F)cc([C@@H](CO)NC(=O)[C@@H](C)N2CCc3sc(-c4nc(NC5CCOCC5)ncc4Cl)cc3C2=O)c1 [Example 9-P2]
(b) Cc1cccc([C@@H](CO)NC(=O)[C@@H](C)N2CCc3sc(-c4nc(N[C@@H](C)CO)ncc4Cl)cc3C2=O)c1
Select one. Lower IC50: a or b Your answer should be the label attached to the chosen record.
a
(a: 18 nM, b: 26 nM)

###

Experiment: Pharmacokinetics assay in mice
Type: in vivo
Details: mouse, po; C57 mice (female), intragastric, 2 mg/kg, plasma; read-out: Apparent distribution volume Vz/F
Outcome measure: Vd/F (L/kg)

Compound: COc1cc(F)cc([C@@H](CO)NC(=O)[C@@H](C)N2CCc3sc(-c4ccnc(Nc5ccnn5C)n4)cc3C2=O)c1
Vd/F / L/kg: 1.76

(A) COc1cc(F)cc([C@@H](CO)NC(=O)[C@@H](C)N2CCc3sc(-c4nc(NC5CCOCC5)ncc4Cl)cc3C2=O)c1 [Example 9-P2]
(B) COc1cc(F)cc([C@@H](CO)NC(=O)[C@@H](C)N2CCc3sc(-c4nc(Nc5ccnn5C)ncc4C)cc3C2=O)c1 [Example 10-P2]
(C) Cc1cccc([C@@H](CO)NC(=O)[C@@H](C)N2CCc3sc(-c4nc(NC5CCOCC5)ncc4Cl)cc3C2=O)c1 [Example 3-P2]
(D) COc1cc(F)cc([C@@H](CO)NC(=O)[C@@H](C)N2CCc3sc(-c4nc(N[C@@H](C)CO)ncc4Cl)cc3C2=O)c1
Sort the compounds on Vd/F; start with the lowest figure. Your reply should list the labels following the order given in the request.
B, C, D, A
(B: 1.99 L/kg, C: 2.98 L/kg, D: 4.77 L/kg, A: 7.14 L/kg)

###

The following compounds have recorded IC50 on ERK2 (Homo sapiens).
Sequence (P28482 whole entry): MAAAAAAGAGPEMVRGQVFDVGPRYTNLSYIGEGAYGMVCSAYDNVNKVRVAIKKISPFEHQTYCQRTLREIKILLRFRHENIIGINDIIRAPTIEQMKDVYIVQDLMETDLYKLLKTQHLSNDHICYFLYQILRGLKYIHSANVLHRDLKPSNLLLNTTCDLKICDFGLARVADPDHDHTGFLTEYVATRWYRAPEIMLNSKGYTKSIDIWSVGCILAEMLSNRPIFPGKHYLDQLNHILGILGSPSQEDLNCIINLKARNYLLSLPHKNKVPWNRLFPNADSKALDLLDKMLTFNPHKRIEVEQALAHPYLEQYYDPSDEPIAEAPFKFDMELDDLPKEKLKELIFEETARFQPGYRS
Outcome measure: IC50 (nM)

(a) C[C@H](C(=O)N[C@H](CO)c1cccc(Cl)c1)N1CCc2sc(-c3nc(NC4CCOCC4)ncc3Cl)cc2C1=O [Example 4-P2]
(b) Cc1cccc([C@@H](CO)NC(=O)[C@@H](C)N2CCc3sc(-c4nc(N[C@@H](C)CO)ncc4Cl)cc3C2=O)c1 [Example 13]
Select one. Lower IC50: a or b Your answer should be the label attached to the chosen record.
a

(I) CC1(C)c2sc(-c3nc(NC4CCOCC4)ncc3Cl)cc2C(=O)N1CC(=O)N[C@H](CO)c1cccc(Cl)c1 [Example 2]
(II) C[C@@H](C(=O)N[C@H](CO)c1cccc(Cl)c1)N1CCc2sc(-c3nc(NC4CCOCC4)ncc3Cl)cc2C1=O [Example 4-P1]
Select one. Lower IC50: I or II Your answer should be the label attached to the chosen record.
I

###

Test: Pharmacokinetics assay in mice
Type: in vivo
Conditions: mouse, po; C57 mice (female), intragastric, 2 mg/kg, plasma; read-out: Residence Time MRT
Outcome measure: MRT (h)

See these solved cases before continuing.
Compound: COc1cc(F)cc([C@@H](CO)NC(=O)[C@@H](C)N2CCc3sc(-c4nc(NC5CCOCC5)ncc4Cl)cc3C2=O)c1 [Example 9-P2]
Value measured: 1.85

Compound: COc1cc(F)cc([C@@H](CO)NC(=O)[C@@H](C)N2CCc3sc(-c4ccnc(Nc5ccnn5C)n4)cc3C2=O)c1
Value measured: 1.85

Compound: COc1cc(F)cc([C@@H](CO)NC(=O)[C@@H](C)N2CCc3sc(-c4nc(N[C@@H](C)CO)ncc4Cl)cc3C2=O)c1
Value measured: 1.05

Compound: Cc1cccc([C@@H](CO)NC(=O)[C@@H](C)N2CCc3sc(-c4nc(NC5CCOCC5)ncc4Cl)cc3C2=O)c1 [Example 3-P2]
Value measured: 1.16

(1) C[C@H](C(=O)N[C@H](CO)c1cccc(Cl)c1)N1CCc2sc(-c3nc(NC4CCOCC4)ncc3Cl)cc2C1=O [Example 4-P2]
(2) COc1cc(F)cc([C@@H](CO)NC(=O)[C@@H](C)N2CCc3sc(-c4nc(Nc5ccnn5C)ncc4C)cc3C2=O)c1 [Example 10-P2]
I need your help: which of the pair 1 , 2 has higher MRT? Your answer should be the label attached to the chosen record.
2
